- assay.summary: Oral bioavailability in Sprague-Dawley rat at 100 mg/kg measured for 18 hrs by LC-MS/MS analysis
- Assay type: ADME, organism-based
- experimental.conditions: in vivo

molecular.string | bioavailability
C=C[C@]1(C)C[C@@H](O)[C@]2(C)[C@H](C)CC[C@]3(C/C(=C\c4ccc(C(=O)NC5CCCCC5)cc4)C(=O)[C@H]32)[C@@H](C)[C@@H]1O | 61.2%

Hello, the source for this data is ChEMBL document CHEMBL5108019, in case you need it.
